// provenance: PubChem BioAssay (NCI)

# Test system: NCI-H23 lung
# procedure-summary: NCI-60 one-dose screen, 48 h
# condition-notes: 10 µM unless noted
About 83,000 compounds went through this panel and 20% of them were active in at least one assay; those are over-represented in the sample as a whole. Active and inactive are the calls of the source. The calls were made as follows: active = growth percent below 10; inactive = the rest.
Respond only with the outcome that fits, drawn from active, inactive

For this compound, state the assay outcome: `Cc1ccc(S(=O)(=O)OCCCOS(=O)(=O)c2ccc(C)cc2)cc1`
inactive

For this compound, state the assay outcome: `COc1ccc2cc(-c3ccnc4c(N=Nc5ccc(Cl)cc5)c(N)nn34)ccc2c1`
inactive

For this compound, state the assay outcome: `Fc1cccc(-c2ccc3c(c2)C2(CCNCC2)CN3)c1`
inactive

For this compound, state the assay outcome: `Cc1c2ccncc2c(C)c2c1c1cc(CO)ccc1n2C`
active

For this compound, state the assay outcome: COc1ccc(C2=CN3CC=CC3CC2=O)cc1 (stereo unspecified)
inactive

For this compound, state the assay outcome: `COc1ccc(-c2nc(-c3cn(C)c4ncccc34)cs2)cc1`
inactive

---

# Tested on: OVCAR-3 ovarian
# procedure-summary: NCI-60 one-dose screen, 48 h (100 = growth as untreated, 0 = no growth, -100 = all killed)
# condition-notes: 10 µM unless noted
About 83,000 compounds went through this panel and 20% of them were active in at least one assay; those are over-represented in the sample as a whole. The source made the active and inactive calls. The calls were made as follows: active = growth percent below 10; inactive = the rest.
quantity: growth

Given the entry `O=C1/C(=C/c2ccc(F)cc2)CN(C(=O)C(Cl)Cl)C/C1=C\c1ccc(F)cc1` , report its measured growth.
-95.1% (active)

Given the entry `C=C(CNCCc1ccc(O)cc1)[C@@H]1CC[C@]2(CO)CC[C@]3(C)[C@H](CC[C@@H]4[C@@]5(C)CCC(=O)C(C)(C)[C@@H]5CC[C@]43C)[C@@H]12` , report its measured growth.
39.7% (inactive)

Given the entry `CNC1=CC(=O)c2c(C(=O)OC)c(C)[n+]([O-])c(C)c2C1=O` , report its measured growth.
7.04% (active)

Given the entry C=C1CC[C@@H]2[C@](C)(COC(C)=O)[C@H](OC(C)=O)CC[C@@]2(C)[C@@H]1CC(Nc1ccc(S(=O)(=O)NC(C)=O)cc1)C1=CCOC1=O (stereo partly specified) , report its measured growth.
-87.7% (active)

Given the entry `O=C1/C(=C\c2ccccn2)c2ccccc2N1c1c(Cl)cccc1Cl` , report its measured growth.
27.4% (inactive)

Given the entry `O=C1/C(=C\c2cccc3nccnc23)SC(=S)N1CCc1ccc(O)cc1` , report its measured growth.
101% (inactive)

Given the entry Nc1ncnc2c1N=C(c1ccc3c(c1)OCO3)CC(c1cccc(Nc3ccnc4cc(C(F)(F)F)ccc34)c1)N2 (stereo unspecified) , report its measured growth.
95.1% (inactive)

Given the entry `CC/C(Cc1ccccc1)=C(\c1ccc(OCCCN(C)C)cc1)c1ccc(OC(=O)NCc2ccccc2)cc1` , report its measured growth.
87.8% (inactive)

Given the entry `C#COc1cccc(Nc2ncnc3cc(NC(=O)[C@@H](C)Cl)ccc23)c1` , report its measured growth.
-6.96% [6.25 µM] (active)

Given the entry Cc1ccc2nc(/C(C#N)=C(/CCCO)NC(Cc3ccccc3)C(=O)OCc3ccccc3)[nH]c(=O)c2c1 (stereo unspecified) , report its measured growth.
110% (inactive)

Given the entry `CC(=O)Oc1ccc(OC(C)=O)c2ccccc12` , report its measured growth.
59.7% (inactive)

Given the entry `C=C1C(=O)O[C@H]2[C@H]1CC/C(COC(=O)/C=C\C(=O)NCc1ccc(Cn3c(=O)sn(CCCl)c3=O)cc1)=C\CC[C@@]1(C)O[C@@H]21` , report its measured growth.
36.2% (inactive)

Given the entry `Cc1ccc(-c2nc(-c3cn(C)c4ncccc34)cs2)cc1` , report its measured growth.
-28.5% [100 µM] (active)

Given the entry `c1nc2ccc(-c3cc4ccc5[nH]ncc5c4c4c3CCCC4)cc2[nH]1` , report its measured growth.
89.5% (inactive)

Given the entry `CCCCC#Cc1c(I)n(C)c(=O)[nH]c1=O` , report its measured growth.
-90.7% (active)

Given the entry `c1ccc(CCNc2c3ccccc3nc3ccccc23)cc1` , report its measured growth.
71% (inactive)

Given the entry `CCCCNC(=O)Oc1ccc(/C(=C(/C)Cc2ccc(OC)cc2)c2ccc(OCCN3CCCCC3)cc2)cc1` , report its measured growth.
77.1% (inactive)

Given the entry `O=C(Nc1ccc(Cl)cc1)Oc1c(Cl)c(Cl)c(Cl)c(Cl)c1Cl` , report its measured growth.
98.8% (inactive)

Given the entry O=C(NC1CC(F)C1)c1cc2cccnc2n1-c1ccc(Cl)c(Cl)c1 (stereo unspecified) , report its measured growth.
102% (inactive)

Given the entry `CCOC(=O)C#Cc1c(C(=O)OCC)nnn1Cc1ccc(C(F)(F)F)cc1` , report its measured growth.
13.6% (inactive)

Given the entry Cc1cccc2c1C[C@@]1(C2=O)C(c2ccc(C(C)(C)C)cc2)=NOS1=O (stereo partly specified) , report its measured growth.
92.1% (inactive)

Given the entry `C=Cc1cnc(Nc2ccc(OC)cc2)nc1NCCCNC(=O)C1CCC1` , report its measured growth.
48.2% (inactive)

Given the entry `C=CC(=O)Nc1ccc(Nc2nccc(-c3ccc(N4CCCC4)c(C#N)c3)n2)cc1` , report its measured growth.
14.1% (inactive)

Given the entry `Clc1ccccc1-c1cnn2cc(-c3ccccc3)cnc12` , report its measured growth.
90% (inactive)

Given the entry O=C(/C=C/C12c3ccccc3C(c3ccccc31)C1C(=O)NC(=O)C12)c1ccc(Br)cc1 (stereo unspecified) , report its measured growth.
13% (inactive)

Given the entry `C=C1C(=O)O[C@H]2[C@H]1CC/C(COC(=O)/C=C/C(=O)OC/C1=C/CC[C@@]3(C)O[C@H]3[C@H]3OC(=O)C(=C)[C@@H]3CC1)=C\CC[C@@]1(C)O[C@@H]21` , report its measured growth.
-0.457% (active)

Given the entry CCOC(=O)CC1CSC(Nc2ccccc2)=N1 (stereo unspecified) , report its measured growth.
102% (inactive)

Given the entry `CCCCCCCCCCCCCCCCCCOc1ccccc1CC(=O)NCC[N+]1(C)CCCCC1` , report its measured growth.
46.5% (inactive)

Given the entry `CC1(C)C(N)=Nc2cc(OCCCN3Cc4ccccc4C3)c(OCC3CC3)cc21` , report its measured growth.
80.6% (inactive)

Given the entry `N#C/C(=C\C=C\c1ccc(-c2cc(Cl)ccc2Cl)o1)c1nc2ccccc2s1` , report its measured growth.
105% (inactive)

Given the entry CC[N+]1(CC)CC[N+]2(CCCC(C)CC2)CC1 (stereo unspecified) , report its measured growth.
111% (inactive)

---

Consider the following molecules; for each one, report its growth.
# Test system: A549/ATCC NSCLC
# procedure-summary: NCI-60 one-dose screen, 48 h (100 = growth as untreated, 0 = no growth, -100 = all killed)
# condition-notes: 10 µM unless noted
This is part of a sample that, as a whole, favours compounds with a hit. Of some 83,000 tested, about 20% had one in any assay.
Dear colleague, please return just the value in %, with no unit written.

Given the entry `Cc1ccc(/C=C/C(=O)c2ccc(-n3cc(CN4CCN(c5cc6c(cc5F)c(=O)c(C(=O)O)cn6C5CC5)CC4)nn3)cc2)cc1` , report its measured growth.
93.5

Given the entry Cc1nn(-c2cc(NC3CCC(O)CC3)c3c(=O)[nH]c(CCC(F)(F)F)cc3c2)c2c1C(=O)CC(C)(C)C2 (stereo not given) , report its measured growth.
38.8

Given the entry `N[C@H]1CCC[C@@H]1NCCCCN1C(=O)c2cccc3cc([N+](=O)[O-])cc(c23)C1=O` , report its measured growth.
27.6

Given the entry Cc1ccc2nc(/C(C#N)=C(/CCCO)NC(Cc3ccccc3)C(=O)OCc3ccccc3)[nH]c(=O)c2c1 (stereo not given) , report its measured growth.
114

Given the entry `C=CCC(CCCC)(C(=O)OCC)C(=O)OCC` , report its measured growth.
103

---

# Test system: HOP-62 NSCLC
# procedure-summary: NCI-60 one-dose screen, 48 h (100 = growth as untreated, 0 = no growth, -100 = all killed)
# condition-notes: 10 µM unless noted
The panel holds about 83,000 compounds, 20% with a hit somewhere; the sample as a whole holds those more often.
Rule for this label: MET means growth is less than 80%; NOT MET means growth is at least 80%.

hey, is growth for CC[N+]1(CC)CC[N+]2(CCCC(C)CC2)CC1 (stereo not given) lower than 80% or not?
NOT MET

hey, is growth for `O=C(Nc1ccc(Br)cc1)C1=NCCCCN1` lower than 80% or not?
MET

hey, is growth for CC(=O)OC(c1ccccc1)C1CCOC1=O (stereo not given) lower than 80% or not?
NOT MET

hey, is growth for CCN1C(=O)N(CC)C2C1NN=c1s/c(=C\c3ccc[nH]3)c(=O)n12 (stereo not given) lower than 80% or not?
MET

hey, is growth for `COC1=C(C)C(=O)N2[C@@H]1[C@H](c1ccccc1)OC21C=CC(=O)C=C1` lower than 80% or not?
MET

hey, is growth for `CCc1ccc(CCC(=O)Nc2ncc(Cc3cc(Cl)ccc3Cl)s2)o1` lower than 80% or not?
MET

hey, is growth for `NC(=O)c1cccc([C@@H]2O[C@H](CO)[C@@H](O)[C@H]2O)c1` lower than 80% or not?
MET

hey, is growth for `COc1ccc(C[n+]2c3ccccc3n3c4ccc(N)cc4ccc32)c(OC)c1OC` lower than 80% or not?
MET

hey, is growth for `COc1ccc(CNc2c3ccccc3nc3ccccc23)c(OC)c1` lower than 80% or not?
MET

hey, is growth for `CC(=O)O[C@H]1C[C@@H]2C(C)(C)C(=O)CC[C@@]2(C)c2ccc(C(C)C)cc21` lower than 80% or not?
NOT MET

hey, is growth for `CN1CCN(C(=O)[C@@]2(C)CC[C@]3(C)CC[C@]4(C)C(=CC[C@@H]5[C@@]6(C)CCC(=O)NC(C)(C)[C@@H]6CC[C@]54C)[C@@H]3C2)CC1` lower than 80% or not?
MET

hey, is growth for `Cc1ccnc(Nc2ccc([N+](=O)[O-])c(NCCN3CCOCC3)n2)c1` lower than 80% or not?
MET

hey, is growth for `CCOC(=O)C#Cc1c(C(=O)OCC)nnn1Cc1ccc(C(F)(F)F)cc1` lower than 80% or not?
NOT MET

hey, is growth for `CC1(C)C(N)=Nc2cc(OCCCN3Cc4ccccc4C3)c(OCC3CC3)cc21` lower than 80% or not?
NOT MET

hey, is growth for `C=C1C(=O)O[C@H]2[C@H]1CC/C(Cn1cc(CCC)nn1)=C\CC[C@@]1(C)O[C@@H]21` lower than 80% or not?
MET

hey, is growth for COc1ccc(C2=NN(C(C)=O)C(c3cn(-c4ccccc4)nc3-c3ccc(Cl)cc3)C2)cc1 (stereo not given) lower than 80% or not?
MET

hey, is growth for `CCOC(=O)C1=C(C)C(Cl)=N/C1=C\c1[nH]c(Cl)c(C)c1C(=O)OCC` lower than 80% or not?
NOT MET
